assay: total protein half-life in vivo (active degradation + dilution); higher = more stable protein; conditions: wild type E. coli NCM3722; growth: P-lim chemostat; doubling time 6 h
Record form. Attribute: total protein half-life in vivo. Fill in for each entry.
Express your answer in h, writing the number without its unit.

Form field total protein half-life in vivo, entry MKKLQIAVGIIRNENNEIFITRRAADAHMANKLEFPGGKIEMGETPEQAVVRELQEEVGITPQHFSLFEKLEYEFPDRHITLWFWLVERWEGEPWGKEGQPGEWMSLVGLNADDFPPANEPVIAKLKRL : 4.48

Form field total protein half-life in vivo, entry MSAGRLNKKSLGIVMLLSVGLLLAGCSGSKSSDTGTYSGSVYTVKRGDTLYRISRTTGTSVKELARLNGISPPYTIEVGQKLKLGGAKSSSITRKSTAKSTTKTASVTPSSAVPKSSWPPVGQRCWLWPTTGKVIMPYSTADGGNKGIDISAPRGTPIYAAGAGKVVYVGNQLRGYGNLIMIKHSEDYITAYAHNDTMLVNNGQSVKAGQKIATMGSTDAASVRLHFQIRYRATAIDPLRYLPPQGSKPKC : 6.32

Form field total protein half-life in vivo, entry MWSEYSLEVVDAVARNGSFSAAAQELHRVPSAVSYTVRQLEEWLAVPLFERRHRDVELTAAGAWFLKEGRSVVKKMQITRQQCQQIANGWRGQLAIAVDNIVRPERTRQMIVDFYRHFDDVELLVFQEVFNGVWDALSDGRVELAIGATRAIPVGGRYAFRDMGMLSWSCVVASHHPLALMDGPFSDDTLRNWPSLVREDTSRTLPKRITWLLDNQKRVVVPDWESSATCISAGLCIGMVPTHFAKPWLNEGKWVALELENPFPDSACCLTWQQNDMSPALTWLLEYLGDSETLNKEWLREPEETPATGD [P0ACR2] : 5.31

Form field total protein half-life in vivo, entry MILFVGFLLMEIVMPQISRTALVPYSAEQMYQLVNDVQSYPQFLPGCTGSRILESTPGQMTAAVDVSKAGISKTFTTRNQLTSNQSILMNLVDGPFKKLIGGWKFTPLSQEACRIEFHLDFEFTNKLIELAFGRVFKELAANMVQAFTVRAKEVYSAR [P0AGL5] : 0.372

Form field total protein half-life in vivo, entry MKVGFIGLGIMGKPMSKNLLKAGYSLVVADRNPEAIADVIAAGAETASTAKAIAEQCDVIITMLPNSPHVKEVALGENGIIEGAKPGTVLIDMSSIAPLASREISEALKAKGIDMLDAPVSGGEPKAIDGTLSVMVGGDKAIFDKYYDLMKAMAGSVVHTGEIGAGNVTKLANQVIVALNIAAMSEALTLATKAGVNPDLVYQAIRGGLAGSTVLDAKAPMVMDRNFKPGFRIDLHIKDLANALDTSHGVGAQLPLTAAVMEMMQALRADGLGTADHSALACYYEKLAKVEVTR [P0ABQ2] : 5.31

Form field total protein half-life in vivo, entry MERNVTLDFVRGVAILGILLLNISAFGLPKAAYLNPAWYGAITPRDAWTWAFLDLIGQVKFLTLFALLFGAGLQMLLPRGRRWIQSRLTLLVLLGFIHGLLFWDGDILLAYGLVGLICWRLVRDAPSVKSLFNTGVMLYLVGLGVLLLLGLISDSQTSRAWTPDASAILYEKYWKLHGGVEAISNRADGVGNSLLALGAQYGWQLAGMMLIGAALMRSGWLKGQFSLRHYRRTGFVLVAIGVTINLPAIALQWQLDWAYRWCAFLLQMPRELSAPFQAIGYASLFYGFWPQLSRFKLVLAIACVGRMALTNYLLQTLICTTLFYHLGLFMHFDRLELLAFVIPVWLANILFSVIWLRYFRQGPVEWLWRQLTLRAAGPAISKTSR : 5.19
